- Assayed System: T1, IFN-γ (human, UniProt P01579 24-166, limits assumed)
- T1 sequence (looked up): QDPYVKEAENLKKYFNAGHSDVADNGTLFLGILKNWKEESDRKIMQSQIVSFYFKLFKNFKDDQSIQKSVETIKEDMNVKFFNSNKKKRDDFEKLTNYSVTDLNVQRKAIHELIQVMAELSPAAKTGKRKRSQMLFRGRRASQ
- Protocol Details: cell-based or functional assay
Endpoint: IC50, A549 cell proliferation assay (ALAMARBLUE); sample stored 3 months at pH 5, 4° C. (µg/mL)
Your answer is read as µg/mL, so omit the unit and give the number.

As a guide, the following entries are already answered.
Binder	Units	Numeric Result
full length human IgG1 antibody against human IFN-γ, purified isoform Peak +2 (antibody, V domains shown, N-glycan sites at amino acids 28 and 297 of SEQ ID NO:17 (VH and CH2); sialylation isoform Peak +2) VH: EVQLVQSGAEVKKPGESLKISCKGSGYNFTSYWIGWVRQMPGKGLELMGIIYPGDSDTRYSPSFQGQVTISADKSISTAYLQWSSLKASDTAMYYCGSGSYFYFDLWGRGTLVTVSS VL: EIVLTQSPGTLSLSPGERATLSCRASQSVSSSYLAWYQQKPGQAPRLLIYGASSRATGIPDRFSGSGSGTDFTLTISRLEPEDFAVYYCQRSGGSSFTFGPGTKVDIKR	µg/mL	0.002
full length human IgG1 antibody against human IFN-γ, purified isoform Peak -2 (antibody, V domains shown, N-glycan sites at amino acids 28 and 297 of SEQ ID NO:17 (VH and CH2); sialylation isoform Peak -2) VH: EVQLVQSGAEVKKPGESLKISCKGSGYNFTSYWIGWVRQMPGKGLELMGIIYPGDSDTRYSPSFQGQVTISADKSISTAYLQWSSLKASDTAMYYCGSGSYFYFDLWGRGTLVTVSS VL: EIVLTQSPGTLSLSPGERATLSCRASQSVSSSYLAWYQQKPGQAPRLLIYGASSRATGIPDRFSGSGSGTDFTLTISRLEPEDFAVYYCQRSGGSSFTFGPGTKVDIKR	µg/mL	0.0037

Let us examine a further case.
stdin: Could you share which IC50, A549 cell proliferation assay (ALAMARBLUE); sample stored 3 months at pH 5, 4° C. value was measured for full length human IgG1 antibody against human IFN-γ, purified isoform Peak +1 (antibody, V domains shown, N-glycan sites at amino acids 28 and 297 of SEQ ID NO:17 (VH and CH2); sialylation isoform Peak +1) VH: EVQLVQSGAEVKKPGESLKISCKGSGYNFTSYWIGWVRQMPGKGLELMGIIYPGDSDTRYSPSFQGQVTISADKSISTAYLQWSSLKASDTAMYYCGSGSYFYFDLWGRGTLVTVSS VL: EIVLTQSPGTLSLSPGERATLSCRASQSVSSSYLAWYQQKPGQAPRLLIYGASSRATGIPDRFSGSGSGTDFTLTISRLEPEDFAVYYCQRSGGSSFTFGPGTKVDIKR ?
stdout: 0.0018
